target: T1, endogenous Bax in Ku70-deficient mouse embryonic fibroblasts (mouse, UniProt Q07813 1-192); test: Scatchard analysis; FITC fluorescence before and after immunoprecipitation of Bax from Ku70-deficient MEF cytosol
T1 construct: also called endogenous Bax in Ku70-deficient MEFs
T1 sequence (Q07813 whole entry): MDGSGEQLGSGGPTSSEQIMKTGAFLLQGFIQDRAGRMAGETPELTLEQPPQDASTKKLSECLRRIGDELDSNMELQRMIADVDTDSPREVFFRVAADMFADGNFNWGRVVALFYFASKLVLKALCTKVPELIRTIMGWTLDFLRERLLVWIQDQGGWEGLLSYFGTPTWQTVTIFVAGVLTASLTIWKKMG
Where no end group is shown, it is not given here.
Quantity Kind: Kd (nM)
Hi! Could you send only the number? It should be in nM, unit omitted.

Asked: Give reported Kd value for VPMLK (also: FITC-labeled, position of label not given here, also called FITC-BIP; FITC-V5) [FITC-labeled BIP (VPMLK; SEQ ID NO: 1)]
Given back: 1300
